# Test system: NHDF
# assay_remarks: Antiproliferative activity against NHDF cells by WST-8 colorimetric assay
# Type: functional, cell-based
# experimental_parameters: Homo sapiens
Let's look at some compounds and their measured IC50.

{"columns": ["compound", "IC50"],
 "data": [
  ["CC1CN(C)CCC1CCC(C)[C@H]1CC[C@@H]2[C@]1(C)CCC1=CC3=CC[C@@H](N(C)C)C[C@]34CC[C@@]12O4 (stereo partly specified)", "1900 nM"]
]}

Req: Give the reported value of IC50 for this record: Cc1cnccc1CCC(C)[C@H]1CC[C@@H]2[C@]1(C)CCC1=CC3=CC[C@@H](N(C)C)C[C@]34CC[C@@]12O4 (stereo partly specified)
Resp: 2700 nM

Req: Give the reported value of IC50 for this record: Cc1cnccc1/C=C/C(C)[C@H]1CC[C@@H]2[C@]1(C)CCC1=CC3=CC[C@@H](N(C)C)C[C@]34CC[C@@]12O4 (stereo partly specified)
Resp: 2900 nM

Req: Give the reported value of IC50 for this record: "CN(C)[C@@H]1C=CC2=CC3=CC[C@]4(C)[C@@H](c5ccc6ccncc6c5)CC[C@H]4[C@@]34CC[C@]2(C1)O4"
Resp: 2400 nM

Req: Give the reported value of IC50 for this record: CC1CN(C)CCC1CCC(C)[C@H]1CC[C@@H]2[C@]1(C)CC=C1C=C3C=C[C@@H](N(C)C)C[C@]34CC[C@@]12O4 (stereo partly specified)
Resp: 4100 nM

Req: Give the reported value of IC50 for this record: "CN(C)[C@H]1C[C@@]23CC[C@@]4(O2)C(=CC[C@@]2(C)[C@H]4C[C@H](O)[C@@H]2c2ccc4ccncc4c2)C=C3[C@@H](O)[C@@H]1O"
Resp: > 300000 nM

Reference for the values: ChEMBL document CHEMBL1137453
